System: Kochia (Kochia scoparia)
Test: Test A postemergence
Assay type: in vivo
Conditions: 500 g ai/ha, postemergence; visual injury, 0 to 100 scale (0 no effect, 100 complete control), approx. 10 d
readout_kind: Plant response rating, Kochia
Give bare numbers.

# example entries with known answers
compound="CC(C)Oc1cccc(C2CN(C)C(=O)C2C(=O)Nc2ccccc2C(F)(F)F)c1 (stereo not drawn)" measured=0
compound="CN1CC(c2cccc(C(F)(F)F)c2)C(C(=O)Nc2ccccc2S(C)(=O)=O)C1=O (stereo not drawn)" measured=30

Ask: Identify measured Plant response rating, Kochia corresponding to CN1CC(c2ccc(C(C)(F)F)cc2)C(C(=O)Nc2ccccc2F)C1=O (stereo not drawn)
Reply: 80

###

Tested on: wheat (Triticum aestivum)
Test: Test A postemergence
Type: in vivo
Conditions: Triticum aestivum, post-emergence, 240 h, 125 g ai/ha, postemergence; visual injury on 0 to 100 scale (0 no effect, 100 complete control), approx. 10 d; read-out: Wheat plant response rating
readout_kind: plant injury at 125 g/ha (%)
One number for each entry, in %.

# example entries with known answers
structure_string=COc1cccc([C@H]2CN(C)C(=O)[C@@H]2C(=O)Nc2cccc(F)c2F)c1 measured=30
structure_string=O=C1NC[C@H](c2cc(C(F)F)cs2)[C@H]1C(=O)Nc1ccccc1F measured=0

Hey, quick one: what's plant injury at 125 g/ha for each of these?
1. O=C1NC[C@H](c2cc(C(F)F)cs2)[C@H]1C(=O)Nc1cccc(F)c1F
2. CSc1ccccc1NC(=O)[C@H]1C(=O)NC[C@@H]1c1ccc(C)c(C)c1

Reply:
1. 0
2. 0

Hey, quick one: what's plant injury at 125 g/ha for each of these?
1. CN1C[C@H](c2cc(C(F)F)cs2)[C@@H](C(=O)Nc2cccc(C#N)c2F)C1=O
2. O=C1NC[C@H](c2ccc(F)c(OC(F)(F)C(F)F)c2)[C@H]1C(=O)Nc1ccccc1F
3. Cc1cc([C@H]2CN(C)C(=O)[C@@H]2C(=O)Nc2ccccc2F)ccc1Br
4. Cc1cc([C@H]2CNC(=O)[C@@H]2C(=O)Nc2ccccc2S(C)(=O)=O)ccc1C(F)(F)F
5. Cc1ccc([C@H]2CNC(=O)[C@@H]2C(=O)Nc2cccc(F)c2C)cc1C
6. CC(C)Oc1ccc([C@H]2CNC(=O)[C@@H]2C(=O)Nc2ccc(F)cc2F)cc1
7. Cc1cc([C@H]2CN(C)C(=O)[C@@H]2C(=O)Nc2cccc(F)c2F)ccc1Br

Reply:
0
60
0
0
20
0
20

Hey, quick one: what's plant injury at 125 g/ha for each of these?
1. CCc1cccc([C@H]2CCNC(=O)[C@@H]2C(=O)Nc2cccc(F)c2F)c1
2. O=C1NC[C@H](c2cscn2)[C@H]1C(=O)Nc1cccc(F)c1F

Reply:
1: 0; 2: 0

###

System: giant foxtail (Setaria faberi)
Assay: Test G Post-Emergence Protocol
Assay type: in vivo
Conditions: Setaria faberi, post-emergence, 312 h, 15.625 g ai/ha, evaluated after 13 days (100=total damage to plant; 0=no damage to plant), read-out: Foxtail, Giant damage rating
What pest or weed control at 15.625 g/ha was measured for each of the following?
Numbers only, in %.

# example entries with known answers
molecule="Cc1nc(F)ccc1NC(=O)[C@@H]1C(=O)N(C)C[C@H]1c1ccc(C(F)(F)F)cc1 (racemic)" readout_kind="pest or weed control at 15.625 g/ha" measured=20
molecule="CCOc1cc(C2CN(C)C(=O)C2C(=O)Nc2cccc(F)c2F)ccc1OC (stereo not shown)" readout_kind="pest or weed control at 15.625 g/ha" measured=60
molecule="CN1C[C@H](c2cc(Cl)cc(C(F)(F)F)c2)[C@@H](C(=O)Nc2ccccc2S(C)(=O)=O)C1=O (racemic)" readout_kind="pest or weed control at 15.625 g/ha" measured=50
molecule="COc1ccc(OC)c([C@H]2CN(C)C(=O)[C@@H]2C(=O)Nc2ccccc2F)c1 (racemic)" readout_kind="pest or weed control at 15.625 g/ha" measured=10
molecule="CN1C[C@H](c2ccc(C(F)(F)F)cc2)[C@@H](C(=O)Nc2ccc3ncccc3n2)C1=O (racemic)" readout_kind="pest or weed control at 15.625 g/ha" measured=0
molecule="CN1C[C@H](c2ccc(C(F)(F)F)cc2)[C@@H](C(=O)Nc2cccc(C(F)F)c2)C1=O (racemic)" readout_kind="pest or weed control at 15.625 g/ha" measured=0

Kindly review the next molecule as well.
Ask: Identify measured pest or weed control at 15.625 g/ha corresponding to CN1C[C@@H](c2ccc(C(F)(F)F)cc2)[C@H](C(=O)Nc2ccc(F)c(F)c2Cl)C1=O (racemic)
Reply: 70

###

Test system: pigweed (Amaranthus retroflexus)
Test: Test A preemergence
Type: in vivo
Conditions: Amaranthus retroflexus, pre-emergence, 240 h, 500 g ai/ha, Preemergence, visual injury vs untreated controls after approximately 10 d; read-out: Pigweed plant response rating (0 to 100 scale where 0 is no effect and 100 is complete control)
What pest or weed control at 500 g/ha was measured for each of the following?
Answers are plain numbers, in %.

# example entries with known answers
structure_string=CS(=O)(=O)c1ccccc1NC(=O)[C@H]1C(=O)NC[C@@H]1c1cc(F)c(C(F)(F)F)c(F)c1 readout_kind="pest or weed control at 500 g/ha" unit_annotation=% measured=90
structure_string=CN1C[C@H](c2cc(F)c(F)c(F)c2)[C@@H](C(=O)Nc2ccccc2F)C1=O readout_kind="pest or weed control at 500 g/ha" unit_annotation=% measured=40
structure_string=CSc1ccccc1NC(=O)[C@H]1C(=O)N(C)C[C@@H]1c1cccc(COC(F)F)c1 readout_kind="pest or weed control at 500 g/ha" unit_annotation=% measured=30
structure_string=CN1C[C@H](c2cc(F)cc(F)c2)[C@@H](C(=O)Nc2ccccc2[S@+](C)[O-])C1=O readout_kind="pest or weed control at 500 g/ha" unit_annotation=% measured=30

Ask: Identify measured pest or weed control at 500 g/ha corresponding to Cc1cc(F)cc([C@H]2CN(C)C(=O)[C@@H]2C(=O)Nc2ccccc2F)c1
Reply: 30

###

Tested on: pigweed (Amaranthus retroflexus)
Test: Test A preemergence
Type: in vivo
Conditions: Amaranthus retroflexus, pre-emergence, 240 h, 125 g ai/ha, preemergence; visual injury rating, 0 to 100 scale where 0 is no effect and 100 is complete control; approximately 10 d; read-out: Pigweed plant response rating
What pest or weed control at 125 g/ha was measured for each of the following?
One number for each entry, in %.

structure_string=Cc1c(F)cccc1NC(=O)[C@H]1C(=O)N(C)C[C@@H]1c1ccc(F)c(Br)c1 readout_kind="pest or weed control at 125 g/ha" measured=50

Hey, quick one: what's pest or weed control at 125 g/ha for each of these?
1. CN1C[C@H](c2csc3c2CCC3)[C@@H](C(=O)Nc2cccc(F)c2F)C1=O
2. CSc1ccccc1NC(=O)[C@H]1C(=O)N(C)C[C@@H]1c1cccc(C)c1
3. Cc1ccc([C@H]2CN(C)C(=O)[C@@H]2C(=O)Nc2cccc(F)c2C#N)cc1
4. O=C1NC[C@H](c2cc(Cl)cc(Cl)c2)[C@H]1C(=O)Nc1cccc(F)c1F
5. N#Cc1ccc([C@H]2CNC(=O)[C@@H]2C(=O)Nc2ccccc2F)cc1F

Reply:
[90, 70, 40, 20, 0]

Hey, quick one: what's pest or weed control at 125 g/ha for each of these?
1. CSc1ccccc1NC(=O)[C@H]1C(=O)N(C)C[C@@H]1c1ccc2c(c1)OC(F)(F)O2
2. CN1C[C@H](c2ccc3c(c2)OC(F)(F)O3)[C@@H](C(=O)Nc2ccc(F)c(F)c2F)C1=O

Reply:
1: 90; 2: 70

Hey, quick one: what's pest or weed control at 125 g/ha for each of these?
1. COc1cc([C@H]2CN(C)C(=O)[C@@H]2C(=O)Nc2cccc(F)c2F)ccc1F
2. Cc1ccc([C@H]2CN(C)C(=O)[C@@H]2C(=O)Nc2ccccc2)cc1

Reply:
1: 20; 2: 100

###

Test system: giant foxtail (Setaria faberii)
Assay: Test A preemergence
Assay type: in vivo
Conditions: Setaria faberi, pre-emergence, 240 h, 500 g ai/ha, preemergence; 0 to 100 scale where 0 is no effect and 100 is complete control; read-out: Foxtail, Giant plant response rating
What pest or weed control at 500 g/ha was measured for each of the following?
Give bare numbers, in %.

# example entries with known answers
structure_string=O=C1NC[C@H](c2nccs2)[C@H]1C(=O)Nc1cccc(F)c1F measured=0
structure_string=Cc1c(F)cccc1NC(=O)[C@H]1C(=O)NC[C@@H]1c1cccc2c1OC(F)(F)O2 measured=90
structure_string=CC(C)Oc1ccc([C@H]2CNC(=O)[C@@H]2C(=O)Nc2cccc(F)c2F)cc1 measured=90
structure_string=CCc1ccc([C@H]2CNC(=O)[C@@H]2C(=O)Nc2cccc(F)c2C)cc1 measured=100
structure_string=O=C1NC[C@H](c2ccc3sccc3c2)[C@H]1C(=O)Nc1cccc(F)c1F measured=90

Hey, quick one: what's pest or weed control at 500 g/ha for each of these?
1. CSc1ccccc1NC(=O)[C@H]1C(=O)N(C)C[C@@H]1c1cccc(C)c1
2. CC(C)Oc1ccc([C@H]2CNC(=O)[C@@H]2C(=O)Nc2ccccc2F)cc1
3. CN1C[C@H](c2ccc(C#N)cc2)[C@@H](C(=O)Nc2ccccc2F)C1=O
4. O=C1NC[C@H](c2ccc(F)c(OC(F)(F)C(F)F)c2)[C@H]1C(=O)Nc1ccccc1F

Reply:
[90, 0, 100, 90]
